Source listed as ChEMBL document CHEMBL1201862.

- System: SW-620
- EXPERIMENT: NCI tumour cell line growth inhibition, 48 h
Calls of active or inactive are those of the source. Cut-off read from the data, not from the text of the source: active = GI50 up to about 1.1 µM and inactive = higher.
READOUT LABEL: GI50

O=C(N/N=C\c1ccc([N+](=O)[O-])cc1)c1ccccc1Nc1ccccc1C(=O)N/N=C/c1ccc([N+](=O)[O-])cc1 | > 100 µM (inactive)
CC1=C2C(=O)c3ccccc3C2=C(C)S(=O)(=O)O1 | > 10 µM (inactive)
Cc1cnc2c(c1C)C(=O)c1ccccc1C2=O | 27.5 µM (inactive)
COc1ccc(N(C(=O)Nc2ccc(Cl)c(Cl)c2)c2ccccc2)cc1 | > 10 µM (inactive)

// recorded GI50 for CC(C)Oc1cccc(N2C(CCc3c[nH]c4ccc(Br)cc34)=NS(=O)(=O)c3cnccc32)c1 : 72.3 µM (inactive)

// recorded GI50 for Cc1nc2c(o1)C(=O)c1ccccc1/C2=N/c1ccccn1 : 17.8 µM (inactive)

// recorded GI50 for COc1cccc(/C=C/c2ccnc3ccccc23)c1OC : > 10 µM (inactive)
